B1: KRT33B (parent)
chain: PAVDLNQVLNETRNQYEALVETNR

Variants of: B1
assay.method.text: protein stability index of a GFP-peptide fusion (GPS, HEK-293T) (PSI 1-6); higher = more stable;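 further: lentivirally expressed fusions sorted by FACS into six bins by GFP to DsRed ratio, PSI derived from sequencing read proportions per bin multiplied by bin number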
condition.notes: c terminus: a fixed tail appended
Lab note: anything with protein stability index at or over 4 counts as class 1; the rest go in class 0.

variant.identifier | classification
Q7P | class 1
L5A | class 0
R24Q | class 1
L19R | class 1
E11M | class 0
R24S | class 1
L19T | class 1
V20A | class 0
Q7I | class 0
L9R | class 1
